I'd appreciate it if you could supply log10 of Ki values for the items below.
Biological target: Melatonin receptor (Gallus gallus, UniProt P49288+P51050+P49285)
Assay: Binding affinity is evaluated for chicken brain melatonin receptor using 2-[125I]iodomelatonin as radioligand
Each number you see is log10 of Ki, and the unit inside the log is nM.

COc1ccc2cccc3c2c1C(CNC(=O)C1CC1)C3 (centres undefined); 0.58
CCCC(=O)NCC1Cc2cccc3ccc(OC)c1c23 (single isomer, unassigned; (+)); 0.63
CCCC(=O)NCC1CCc2c(OC)ccc3ccc(OC)c1c23 (stereo in doubt; 15c); -1.15
COc1ccc2cccc3c2c1CCC3CNC(=O)C1CC1 (centres undefined); 0.66

// each listed molecule needs a value for log10 of Ki
1. CCC(=O)NCC1Cc2cccc3cccc1c23 (centres undefined)
2. CCCC(=O)NCC1CCc2c(OC)ccc3ccc(OC)c1c23 (single isomer, unassigned; (-))
3. COc1ccc2ccc(OC)c3c2c1CCC3CCNC(=O)C1CC1 (centres undefined)
4. COc1ccc2cccc3c2c1C(CNC(C)=O)C3 (centres undefined)
5. CCC(=O)NCC1Cc2cccc3ccc(OC)c1c23 (centres undefined)
6. CCCC(=O)NCC1CCc2c(OC)ccc3cccc1c23 (single isomer, unassigned; (-))

Response given:
1.16
-1.47
1.05
0.47
-0.05
-0.10

Below are 4 molecules. Give each one its log10 of Ki.
1. CC(=O)NCC1Cc2cccc3cccc1c23 (centres undefined)
2. O=C(NCCC1Cc2cccc3cccc1c23)C1CC1 (centres undefined)
3. CCCC(=O)NCCC1CCc2c(OC)ccc3cccc1c23 (centres undefined)
4. CCC(=O)NCCC1Cc2cccc3ccc(OC)c1c23 (centres undefined)

Response given:
1. 1.56
2. 2.60
3. 1.45
4. 0.68

Look at each molecule and report its log10 of Ki.
1. COc1ccc2cccc3c2c1CCC3CNC(C)=O (centres undefined)
2. CCCC(=O)NCCC1CCc2cccc3ccc(OC)c1c23 (centres undefined)
3. CCC(=O)NCC1CCc2c(OC)ccc3ccc(OC)c1c23 (centres undefined)
4. COc1ccc2ccc(OC)c3c2c1CCC3CNC(C)=O (centres undefined)
5. COc1ccc2cccc3c2c1C(CCNC(=O)C1CC1)C3 (centres undefined)

Response given:
[-0.05, -0.37, -1.96, -1.27, 1.99]

// for each molecule below, give its log10 of Ki
1. CCC(=O)NCCC1Cc2cccc3cccc1c23 (centres undefined)
2. COc1ccc2cccc3c2c1CCC3CCNC(=O)C1CC1 (centres undefined)

Response given:
[2.01, 1.64]

For every record below, what is its log10 of Ki?
1. CCCC(=O)NCC1CCc2c(OC)ccc3cccc1c23 (stereo in doubt; 13c (+))
2. CCCC(=O)NCC1CCc2cccc3cccc1c23 (centres undefined)
3. COc1ccc2ccc(OC)c3c2c1CCC3CNC(=O)C1CC1 (centres undefined)

Response given:
1: 1.34; 2: 0.51; 3: -0.89

* * *

Target: Melatonin receptor (Gallus gallus, UniProt P49288+P51050+P49285)
Assay: Binding affinity is evaluated for chicken brain melatonin receptor using 2-[125I]iodomelatonin as radioligand
MEASURE NAME: Ki (pM)
Numbers only, in pM.

Solved cases (3 shown):
CCC(=O)NCCC1CCc2c(OC)ccc3ccc(OC)c1c23 (stereo unspecified); 800
CCCC(=O)NCC1Cc2cccc3cccc1c23 (stereo unspecified); 4300
CCCC(=O)NCC1Cc2cccc3ccc(OC)c1c23 (single isomer, unassigned; (-)); 150

# batch size: 3; output Ki per entry
1. CCCC(=O)NCCC1CCc2c(OC)ccc3ccc(OC)c1c23 (stereo unspecified)
2. COc1ccc2cccc3c2c1CCC3CCNC(C)=O (stereo unspecified)
3. CCCC(=O)NCC1Cc2cccc3ccc(OC)c1c23 (stereo in doubt; 20c)

Response given:
1: 140; 2: 145000; 3: 160

* * *

Molecular target: Melatonin receptor type 1A (Homo sapiens)
Sequence (P48039 whole entry): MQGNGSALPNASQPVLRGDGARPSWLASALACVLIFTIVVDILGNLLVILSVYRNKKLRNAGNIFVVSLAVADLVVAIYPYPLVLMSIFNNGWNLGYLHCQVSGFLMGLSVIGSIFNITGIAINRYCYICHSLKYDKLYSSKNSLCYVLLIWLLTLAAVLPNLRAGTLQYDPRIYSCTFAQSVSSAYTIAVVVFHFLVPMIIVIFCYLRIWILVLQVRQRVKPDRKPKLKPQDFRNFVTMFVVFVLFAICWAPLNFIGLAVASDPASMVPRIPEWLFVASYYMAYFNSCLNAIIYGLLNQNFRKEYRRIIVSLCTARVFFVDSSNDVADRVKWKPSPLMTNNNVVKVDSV
Response field label: string, one of Condition met (Ki strictly below 0.06 nM) or Condition not met.

Challenge: Is the reported Ki for CC(=O)NCC1CCc2cccc3cccc1c23 (configuration not stated) strictly below 0.06 nM?
Response given: Condition not met

Challenge: Report whether reported Ki is lower than 0.06 nM (strictly) for CCCC(=O)NCC1CCc2c(OC)ccc3ccc(OC)c1c23 (stereo in doubt; 15c)
Response given: Condition met

Challenge: Problem: For the compound COc1ccc2cccc3c2c1C(CNC(C)=O)CC3 (configuration not stated) , is Ki under 0.06 nM?
Response given: Condition met

Challenge: Please indicate whether the reported Ki of COc1ccc2cccc3c2c1C(CCNC(=O)C1CC1)C3 (configuration not stated) is strictly below 0.06 nM.
Response given: Condition not met

Challenge: In the record for COc1ccc2cccc3c2c1CCC3CNC(C)=O (configuration not stated) , is Ki less than 0.06 nM?
Response given: Condition not met

Challenge: Decide: Ki of COc1ccc2ccc(OC)c3c2c1CCC3CCNC(C)=O (configuration not stated) strictly below 0.06 nM?
Response given: Condition not met

Challenge: Given CCC(=O)NCC1Cc2cccc3cccc1c23 (configuration not stated) , is recorded Ki strictly lower than 0.06 nM?
Response given: Condition not met

Challenge: # strict comparison: is reported Ki < 0.06 nM? input = CC(=O)NCC1Cc2cccc3cccc1c23 (configuration not stated)
Response given: Condition not met

Challenge: Find out if reported Ki for CCC(=O)NCC1CCc2c(OC)ccc3ccc(OC)c1c23 (configuration not stated) is less than 0.06 nM
Response given: Condition met

Challenge: Field: below-cutoff. Rule: recorded Ki strictly less than 0.06 nM. Subject: CCC(=O)NCCC1Cc2cccc3ccc(OC)c1c23 (configuration not stated)
Response given: Condition not met

Challenge: Is Ki strictly under 0.06 nM for the entry CCCC(=O)NCCC1CCc2c(OC)ccc3ccc(OC)c1c23 (configuration not stated) ?
Response given: Condition met

Challenge: Please let me know if CCC(=O)NCC1CCc2c(OC)ccc3cccc1c23 (configuration not stated) shows Ki below 0.06 nM.
Response given: Condition not met

* * *

Target or system UniProtKB P48039; recorded quantity Ki.
Give bare numbers, in nM.

I would be grateful if you could provide Ki for each of the following entries.
1. COc1ccc2cccc3c2c1C(CNC(C)=O)C3 (configuration not stated)
2. CCCC(=O)NCC1CCc2c(OC)ccc3cccc1c23 (stereo in doubt; 13c (+))
3. COc1ccc2cccc3c2c1CCC3CCNC(=O)C1CC1 (configuration not stated)
4. CCC(=O)NCCC1Cc2cccc3cccc1c23 (configuration not stated)
5. COc1ccc2cccc3c2c1CCC3CNC(=O)C1CC1 (configuration not stated)
6. CCCC(=O)NCCC1Cc2cccc3ccc(OC)c1c23 (configuration not stated)
7. CCCC(=O)NCC1Cc2cccc3cccc1c23 (configuration not stated)

Response given:
1. 0.12
2. 2.9
3. 1.89
4. 4.34
5. 0.95
6. 0.37
7. 0.79

* * *

Experiment: Melanophore aggregation of the dermal melanocytes of Xenopus laevis tadpoles with regard to melatonin (=1)
Format: functional
// label = yes (1) if Potency is not less than 1, otherwise no (0)

COc1ccc2cccc3c2c1CCC3CNC(C)=O (stereo unspecified); no (0)
CCCC(=O)NCC1CCc2c(OC)ccc3ccc(OC)c1c23 (stereo in doubt; 15c); yes (1)
COc1ccc2cccc3c2c1C(CNC(C)=O)CC3 (stereo unspecified); yes (1)
COc1ccc2cccc3c2c1C(CCNC(C)=O)CC3 (stereo unspecified); no (0)
CCCC(=O)NCC1CCc2cccc3ccc(OC)c1c23 (stereo unspecified); yes (1)

Challenge: Reported Potency at or above 1? CCCC(=O)NCC1Cc2cccc3ccc(OC)c1c23 (stereo in doubt; 20c)
Response given: yes (1)

Challenge: Given COc1ccc2cccc3c2c1C(CNC(C)=O)C3 (stereo unspecified) , state whether its Potency is at least 1.
Response given: yes (1)

Challenge: Textbook exercise: given the entry CCCC(=O)NCCC1CCc2c(OC)ccc3ccc(OC)c1c23 (stereo unspecified) , state whether its Potency is greater than or equal to 1.
Response given: yes (1)

Challenge: Has COc1ccc2ccc(OC)c3c2c1CCC3CCNC(C)=O (stereo unspecified) a recorded Potency greater than or equal to 1?
Response given: yes (1)

Challenge: Could you tell me if the measured Potency of COc1ccc2ccc(OC)c3c2c1CCC3CNC(C)=O (stereo unspecified) reaches 1 or more?
Response given: yes (1)

Challenge: Hi team, for COc1ccc2cccc(CCNC(C)=O)c2c1 , is the recorded Potency at or above 1?
Response given: no (0)

* * *

Target: Melatonin receptor (Gallus gallus, UniProt P49288+P51050+P49285)
Assay: Binding affinity is evaluated for chicken brain melatonin receptor using 2-[125I]iodomelatonin as radioligand
MEASURE NAME: Ki

In the examples that follow, each entry is paired with its recorded Ki.
CCC(=O)NCCC1CCc2c(OC)ccc3cccc1c23 (centres undefined); 31.7 nM
COc1ccc2cccc3c2c1C(CNC(C)=O)CC3 (centres undefined); 0.04 nM
CC(=O)NCCC1Cc2cccc3cccc1c23 (centres undefined); 123.3 nM
CCCC(=O)NCC1CCc2cccc3ccc(OC)c1c23 (centres undefined); 0.02 nM
COc1ccc2cccc3c2c1C(CCNC(C)=O)C3 (centres undefined); 2.7 nM
COc1ccc2cccc3c2c1C(CCNC(C)=O)CC3 (centres undefined); 24.4 nM

// for each compound below, give its Ki
1. COc1ccc2ccc(OC)c3c2c1CCC3CCNC(C)=O (centres undefined)
2. O=C(NCC1Cc2cccc3cccc1c23)C1CC1 (centres undefined)
3. CCCC(=O)NCCC1Cc2cccc3cccc1c23 (centres undefined)
4. CC(=O)NCC1CCc2cccc3cccc1c23 (centres undefined)
5. CCCC(=O)NCC1CCc2c(OC)ccc3ccc(OC)c1c23 (single isomer, unassigned; (+))
6. CCC(=O)NCC1CCc2c(OC)ccc3cccc1c23 (centres undefined)
7. CCCC(=O)NCCC1Cc2cccc3ccc(OC)c1c23 (centres undefined)

Response given:
1. 3.6 nM
2. 40.5 nM
3. 73.7 nM
4. 5.5 nM
5. 0.31 nM
6. 0.7 nM
7. 2.4 nM

For CCCC(=O)NCC1CCc2c(OC)ccc3cccc1c23 (stereo in doubt; 13c) the compound record lists Ki as 0.36 nM
